Source: patent US11904020B2

Collected Kd values appear next to each entry.
Experimental Target: TREM2 extracellular domain (ECD) (residues 19-131, C-terminally biotinylated, deglycosylated or glycosylated) (Homo sapiens, UniProt Q9NZC2);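 note: Bio-layer interferometry in 50 mM HEPES pH 7.5 with 150 mM NaCl and 0.1% Tween, double-referenced with blank wells and unrelated-protein sensors, equilibrium response fitted versus concentration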
Assay Protocol: biochemical
Assay Conditions: Human BLI (Kd; nM) (deglycosylated), Table 4B; deglycosylated human TREM2 ECD; steady-state KD, 25° C.
*1 amine or outer side, *2 acyl side, *3 side chain or, on linkers, in order; H or OH if unused. Where a SMILES comes first, the peptide text is derived from it. Bridges are numbered along the chain shown (N, C = ends). [ ]: non-standard residue; d: D form. TATA = O=C(CC[*:1])N1CN(C(=O)CC[*:2])CN(C(=O)CC[*:3])C1; 4Pal = N[C@@H](Cc1ccncc1)C(=O)O

Molecule	Kd
CC(=O)N[C@H]1CSCCC(=O)N2CN3CN(C2)C(=O)CCSC[C@H](NC(=O)[C@H](Cc2ccc(O)cc2)NC(=O)[C@@H](C)NC(=O)[C@H](CO)NC1=O)C(=O)N[C@@H](Cc1ccccc1)C(=O)N[C@@H](Cc1c[nH]c2ccccc12)C(=O)N1CCC[C@H]1C(=O)N[C@@H](Cc1ccccc1)C(=O)N[C@@H](Cc1ccc(O)cc1)C(=O)N[C@@H](Cc1c[nH]cn1)C(=O)N[C@H](C(N)=O)CSCCC3=O [BCY20087, Ac-(SEQ ID NO: 80)]	18000 nM

Let's switch to this molecule now.
In: Tell me the measured Kd of CC(=O)N[C@H]1CSCCC(=O)N2CN3CN(C2)C(=O)CCSC[C@H](NC(=O)[C@H](Cc2ccc(O)cc2)NC(=O)[C@H](CCC(=O)O)NC(=O)[C@H](CO)NC1=O)C(=O)N[C@@H](Cc1ccccc1)C(=O)N[C@@H](Cc1c[nH]c2ccccc12)C(=O)N1CCC[C@H]1C(=O)N[C@@H](Cc1ccncc1)C(=O)N[C@@H](Cc1ccc(O)cc1)C(=O)N[C@@H](Cc1c[nH]cn1)C(=O)N[C@H](C(N)=O)CSCCC3=O [BCY20569, Ac-(SEQ ID NO: 95)] (Ac-CSEYCFWP[4Pal]YHC-NH2; linker 1-5-12 via TATA) , please.
Out: 3800 nM

====

Collected EC50 values appear next to each entry.
Experimental Target: TREM2 receptor (Homo sapiens, UniProt Q9NZC2)
Construct: Both parental (TREM2 expressing) and isogenic TREM2 KO iPSC macrophages were plated; endogenous in cells; host or cells: human iPSC-derived macrophages (parental, TREM2 expressing)
Sequence (Q9NZC2 19-230): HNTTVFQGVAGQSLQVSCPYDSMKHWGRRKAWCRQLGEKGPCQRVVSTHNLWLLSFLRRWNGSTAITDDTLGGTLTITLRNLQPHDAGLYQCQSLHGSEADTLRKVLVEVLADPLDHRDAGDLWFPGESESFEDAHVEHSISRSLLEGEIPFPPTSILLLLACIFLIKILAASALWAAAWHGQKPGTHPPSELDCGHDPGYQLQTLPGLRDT
Assay Protocol: pSYK Homogenous Time Resolved Fluorescence (HTRF) assay in iPSC macrophages
Type: cell-based
Assay Conditions: human iPSC macrophages, 5 mins stimulation, phospho (Tyr 525/526) SYK; NB = no binding; read-out: pSYK
*1 amine or outer side, *2 acyl side, *3 side chain or, on linkers, in order; H or OH if unused. Where a SMILES comes first, the peptide text is derived from it. Bridges are numbered along the chain shown (N, C = ends). [ ]: non-standard residue; d: D form. TATA = O=C(CC[*:1])N1CN(C(=O)CC[*:2])CN(C(=O)CC[*:3])C1; Phe(4-Me) = Cc1ccc(C[C@H](N)C(=O)O)cc1; hPhe = N[C@@H](CCc1ccccc1)C(=O)O

Compound	EC50
CC(=O)N[C@H]1CSCCC(=O)N2CN3CN(C2)C(=O)CCSC[C@H](NC(=O)[C@H](Cc2ccc(O)cc2)NC(=O)[C@H](CCC(=O)O)NC(=O)[C@H](CO)NC1=O)C(=O)N[C@@H](Cc1ccc(C)cc1)C(=O)N[C@@H](Cc1c[nH]c2ccccc12)C(=O)N1CCC[C@H]1C(=O)N[C@@H](Cc1ccccc1)C(=O)N[C@@H](Cc1ccc(O)cc1)C(=O)N[C@@H](C)C(=O)N[C@H](C(N)=O)CSCCC3=O [BCY19298, Ac-(SEQ ID NO: 30)] (Ac-CSEYC[Phe(4-Me)]WPFYAC-NH2; linker 1-5-12 via TATA; C-terminus assumed)	< 3.4 µM

Let's switch to this compound now.
In: Tell me the measured EC50 of CC(=O)N[C@H]1CSCCC(=O)N2CN3CN(C2)C(=O)CCSC[C@H](NC(=O)[C@H](Cc2ccc(O)cc2)NC(=O)[C@H](CCC(=O)O)NC(=O)[C@H](CO)NC1=O)C(=O)N[C@@H](Cc1ccccc1)C(=O)N[C@@H](Cc1c[nH]c2ccccc12)C(=O)N1CCC[C@H]1C(=O)N[C@@H](CCc1ccccc1)C(=O)N[C@@H](Cc1ccc(O)cc1)C(=O)N[C@@H](C)C(=O)N[C@H](C(N)=O)CSCCC3=O [BCY19301, Ac-(SEQ ID NO: 35)] (Ac-CSEYCFWP[hPhe]YAC-NH2; linker 1-5-12 via TATA) , please.
Out: < 3.4 µM
